Test system: SGC-7901
protocol description: Antiproliferative activity against human SGC7901 cells assessed as cell growth inhibition incubated for 72 hrs by MTT assay
Assay type: functional, cell-based
experimental conditions: SGC-7901, 72 h
pIC50: −log10 of the molar value.
Returns one of fulfilled or not fulfilled; fulfilled when pIC50 is >= 5.

Answered examples (3):
COc1ccc(/C=C/C(=O)c2cc(OC)c(OC)c(OC)c2)cc1O : fulfilled
COc1ccc(/C=C/C(=O)c2cc(OC)c(OC)c(OC)c2)cc1OCCCCCCC(=O)NO : not fulfilled
COc1ccc(/C=C/C(=O)c2cc(OC)c(OC)c(OC)c2)cc1OCCCCCC(=O)NO : not fulfilled

--- query ---
QUERY: Please indicate if the recorded pIC50 for "COc1ccc(/C=C(\C)C(=O)c2cc(OC)c(OC)c(OC)c2)cc1OCCCCCCC(=O)NO" meets or exceeds 5.
RESULT: not fulfilled
